Data provenance: patent US20040092720A1

Experimental target: T1, recombinant human IL-6 (human, UniProt P05231 30-212, labeled with radioactive iodine)
T1 construct: Labeled probe in solution, added to wells that carry the synthetic peptides; also called IL-6 ligand; Interleukin-6
Protocol description: radioiodinated IL-6 on peptide array
Class boundaries, taken from values of Counts/minute bound, are as follows: lower bin: < 4000 counts/minute; middle bin: ≥ 4000 counts/minute and < 8000 counts/minute; upper bin: ≥ 8000 counts/minute

1. SSFYRLRFE [Peptide C13] :: lower bin
2. AAGSHPSRWA [Peptide A12] :: lower bin
3. LLVRKFQNS [Peptide B30] :: middle bin
4. PRSTPSLTTKAVLAVRKFQNS (alanine-scan variant of the domain II 21-mer) [Peptide B41] :: lower bin
5. SSFYRLRFELRYRAEASKTFT (alanine-scan variant of the domain III 21-mer) [Peptide C39] :: lower bin
6. AAGSHPSRWAGMGRRLALRSV (alanine-scan variant of the domain I 21-mer) [Peptide A38] :: middle bin
7. MGRRLLLRSV [Peptide A28] :: middle bin
8. PRSTPSLTTKAVLLVRKFQNA (alanine-scan variant of the domain II 21-mer) [Peptide B34] :: upper bin
9. SSFYRLRFELAYRAERSKTFT (alanine-scan variant of the domain III 21-mer) [Peptide C43] :: middle bin
10. SSFYRLRF [Peptide C14] :: lower bin
11. PRSTPSLTAKAVLLVRKFQNS (alanine-scan variant of the domain II 21-mer) [Peptide B45] :: middle bin
12. PRSTPSLTTKAVLLARKFQNS (alanine-scan variant of the domain II 21-mer) [Peptide B40] :: middle bin
13. PRSTPSLTTKAVLLVRAFQNS (alanine-scan variant of the domain II 21-mer) [Peptide B38] :: upper bin
14. RWAGMGRRLLLRSV [Peptide A24] :: upper bin
15. PRSTPSLTTKAVLLVRKFQAS (alanine-scan variant of the domain II 21-mer) [Peptide B35] :: upper bin
